The measured values listed here are drawn from PubChem BioAssay AID1259415.

Assay: qHTS Assay for inhibitors of the human cytomegalovirus (HCMV); note: % is set by controls: 0 for no effect and ±100 for the full control effect
Details: HFF cells, HCMV-luciferase reporter, 72 h; at 57.5 µM; active compounds read low
Screen size: about 410,000 compounds; about 18,000 (4.4%) were called active. Not shown: some 7% with an inconclusive outcome. This is one part of a sample in which actives are shown more often than they occur.
observed.property: activity change, negative = inhibition (%)
Please give a number only; it is taken to be in %.

Incoming: Write down activity change, negative = inhibition measured for item O=C(CC(c1cccs1)N1Cc2ccccc2C1=O)Nc1ccc(F)c(F)c1 (stereo unspecified)
Outgoing: -28.8

Incoming: Write down activity change, negative = inhibition measured for item O=C(NC1CC(=O)N(c2ccccc2)C1)c1ccco1 (stereo unspecified)
Outgoing: 43.8

Incoming: Write down activity change, negative = inhibition measured for item c1ccc2c(c1)OCC(c1nn3cnnc3s1)O2 (stereo unspecified)
Outgoing: -4.38

Incoming: Write down activity change, negative = inhibition measured for item CSCC[C@H](NC(=O)N1CCn2c1nc1ccccc12)C(=O)NC1CCCCC1
Outgoing: -35.1

Incoming: Write down activity change, negative = inhibition measured for item COc1ccc(NC(=O)CC2COc3ccccc3O2)c(OC)c1 (stereo unspecified)
Outgoing: 9.76

Incoming: Write down activity change, negative = inhibition measured for item COc1ccccc1C1CCN(C(=S)Nc2ccc(Br)cc2)CC1
Outgoing: 2.47
